# Measurement protocol: yeast display, Sf9 membrane polyspecificity reagent, FACS + sequencing; frameworks hold sequencing errors
Quantity measured: polyreactivity (PSR sort gate)

These solved cases illustrate the format of a correct answer.
QVQLVESGGGLVQAGGSLRLTCAASGSTFKSYAMGWYRQDPGKERELVAAITVSGGSTYYADSVKGRFTISRDNAKNTVYLMMNSLTPEDTSVYYCAADSVLLKDTGYDYWGQGTQVTVSS ... low polyreactivity
QVQLVESGRGLVQAGGSLRLSCAASGFIFHRYAMGWYRQAPGKERELFAAITRTGGRTYYADSVKGRFTISRDNAKNTVYLQMNSLKPEDTEVYYCAAVRTLSYEYWGQGTKVTVSS ... high polyreactivity
QVQLVESGGGLVQAGGSLRLSCAASGFTFGFYAMGWYRQAPGKERELVATINYNGGSTYYADSVKGRFTISRDNAKNTVYLEMNSLKPEDTAVYYCATDYGWAPSYWYDSCGQGTQVTVSS ... low polyreactivity
QVQLVESAAGLVQAGGSLRLSCAASGIIFPRNVMGWYRQAPGKERELVAAITYSGGRTYYADSVKGRFTISRDNAKNTVYLQMNSLKPEDTAVYYCNADFRSQPYDYWGQGTQVTVSS ... low polyreactivity
QVQLVESGGGLVQAGGSLRLSCAASGITFHPYAKGWYRQAPGNEREFVAVISFRGGRTYYADSVKGRFTISRDNAKNNVYLQMNSLKPEDTAVYYCAAQYVSRRYSRYNYWGQGTQVTVSS ... high polyreactivity

I would be grateful if you could provide polyreactivity (PSR sort gate) for each of the following entries.
1. QGQLVESGGGLVQAGGSLRLSCAASGFTFSYNVMGWYRQAPGKERELVPAINWSGGRTYYADSVKGRFTISRDNAKNTVYLQMNSLKPEDTAVYYCAARVYRGTARLIYDYWGQGTQVTVSS
2. QVQLVESGGGLVQAGGSLRLSCAASGITYRWKAMGWYRQAPGKERELVAAITTRGGGTYYAVSVKGRFTISRDNAKNTVYLQMISLKPEDTAVYYCAAKKSRYPYNYWGQGTQVTVSS
3. QVQLVESGGGLVQAGGSLRLSCAASGGIFYRNAMGWYRQAPGKERELVAAITQSGGRTYYADSVKGRFTISRDNAKNTVYLQMNSLKPEDTAVYYCAARSRKLYGHYRGAYDYWGQGTQVTVSS
4. QVQLVESGGGLVQAGGSLRLSCAASGRTFYVKVMGWYRQEPGKERELVAVISRSDGSTTYADSVKGRFTISRDNAKNTVYLQMNSLKPEDTAVYYCNTDLPLGSGVLPDWELFDYWGQGTQVTVSS
5. QVQLVESGGGLVQAGGSLRLSCAASGSIFSSYAMGWYRPAPGKERELVAAITRTGGRTYYADSVKGRFTISRDNAKNTVYLQMNSLKPEDTAVYYCAAKQVSRGVAAYDYWGQGTQVTVSS
6. QVQLVESGGGLFQAGGSLRLSCAASGFTFYVYAMGWYRQAPGKERELVAAISSGGGSTYYADSVKGRFTISRDNAKNTVYLQMNSLKPEDTAVYYCNKLFPGTYDGAHGYWGQGTQVTVSS
7. QVQLVESGGGLVQAGGSLRLICAASGRIFDYYGMGWYRQAPGKETELVATIRRGGSTYYADSVKGRFTISRDNAMNTVYLQMNSLKPEDTAVYYCAAPGYSWYTYRRYDYWGQGTQVTVSS
8. QVQLVEAGGGFVQAGGRLRLSCAASGSIFTLNTRGWYSPAPGKEREWVAAMTGSGGITYSADSVKGRFTISRDKAKKTVYLQLNSLKPEETAVYYCAADTGYVHAGYWGQGTQVTVSS

1: high polyreactivity; 2: high polyreactivity; 3: high polyreactivity; 4: low polyreactivity; 5: high polyreactivity; 6: low polyreactivity; 7: high polyreactivity; 8: low polyreactivity

I would be grateful if you could provide polyreactivity (PSR sort gate) for each of the following entries.
1. QVQLVEAAGGLVQAGGSLRLSCAASGSIFRNNAMGWYSPAPGKARELVAVISRRSGNTYYADSVKGRLTISRENAKNPVYLLMNSLKPEDSAVYYCAADYSNSSIRGDYWGQGTEVTVSS
2. QVQLVESGGGLVQAGGSLRLSCAASGFIFLAYTMGWYRPAPGKERELVAAISTSGGSTYYADSVKGRFTISRDNAKNTVYLQMNILKPEDTAVYYCAARYRWGRYDYWGQGTQVTVSS
3. QVQLVESGGGLVQAGGSLRLSCAASGLTFERYAMGSYIQAPGKERELVAAISGSGGSTYYADSVKGRFTISRDNAKNTVYLQMNSLKPEDTAVYYCAAYPTVWYDYWGQGTQVTVSS
4. QVQLVESGGGLVQAGGSLRLSCAASGSTLDLYAMGWYRQAPGKEREFVASISWSGGSTYYADSVKGRFTISRDNAKNTVYLQMNRLKPEDTAVYYCAADLVIRGSLYVSSWYDYWGQGSQVTVSS
5. QVQLVESVVGLVQAGGSLRLSCAASGSTFLPYTMGWYRQAPGKETELVAGISGSGPRTYYADSVKGRFTISRDNAKNTVYLQMNSLKPEDTAVYYCAKKSSYRYGYWGQGTQVTVSS

["low polyreactivity", "high polyreactivity", "high polyreactivity", "low polyreactivity", "high polyreactivity"]

I would be grateful if you could provide polyreactivity (PSR sort gate) for each of the following entries.
1. QVQLVESGGGLVQAGGSHRLSCAASGGIAGNTMGWYRQAPGKERELVAAITRSGGRTYYADSVKGRFTISRDNAKNTVYLQMNSLKPEDTAVYYCAVTGLVRRRYGYWGQGTQVTVSS
2. QVQLVESGGGLVQAGGSLRLSCAASGLTIWRHAMGWYRQAPGKEREFVATISQNGGRTYYADSVKGRFTISRDNAKNTVYLQMNSLKPEDTAVYYCAADDWRWRYDYWGQGTQVTVSS
3. QVQLVESGGGLVQAGGRLRLSCAASGSIFAGYAMGWYRQAPGKERELVAASSTDYADSVKGRFTISRDNAKNTVYLHMNSLKPEDTAVYYCAKVGFGIPGGFYYWGQGTQVTVSS

1. high polyreactivity
2. high polyreactivity
3. low polyreactivity
